Recorded pIC50 values (Hepatic triacylglycerol lipase (Homo sapiens, UniProt P11150)) are given below.
Please express pIC50 as -log10 of the molar concentration.

Solved cases below.
CN1CCN(C(=O)c2ccc(-c3ccc4nc(C(C#N)C(=O)NCC(=O)NC5CC5)sc4c3)cc2)CC1 (racemic)    5.74
N#CC(C(=O)NCC(=O)NC1CC1)c1nc2ccc(-c3ccc4c(c3)C(=O)NC4)cc2s1 (racemic)    6.38
CN(C)C(=O)c1ccc(-c2ccc3nc(C(C#N)C(=O)NCC(=O)NC4CC4)sc3c2)cc1F (racemic)    5.96
N#CC(C(=O)NCC(=O)N1CCCC1)c1nc2ccc(-c3ccccc3)cc2s1 (racemic)    6.60
N#CC(C(=O)NCC(=O)NC1CC1)c1nc2ccc(-c3ccc(NC(=O)OCc4ccccc4)cc3)cc2s1 (racemic)    9.10

Please examine the following record next.
Ask: # pIC50 lookup, item N#CC(C(=O)NCC(=O)NC1CC1)c1nc2ccc(-c3ccccc3)cc2s1 (racemic)
Result: 8.27

---

Target: Cytochrome P450 2D6 (Homo sapiens)
Sequence (P10635 whole entry): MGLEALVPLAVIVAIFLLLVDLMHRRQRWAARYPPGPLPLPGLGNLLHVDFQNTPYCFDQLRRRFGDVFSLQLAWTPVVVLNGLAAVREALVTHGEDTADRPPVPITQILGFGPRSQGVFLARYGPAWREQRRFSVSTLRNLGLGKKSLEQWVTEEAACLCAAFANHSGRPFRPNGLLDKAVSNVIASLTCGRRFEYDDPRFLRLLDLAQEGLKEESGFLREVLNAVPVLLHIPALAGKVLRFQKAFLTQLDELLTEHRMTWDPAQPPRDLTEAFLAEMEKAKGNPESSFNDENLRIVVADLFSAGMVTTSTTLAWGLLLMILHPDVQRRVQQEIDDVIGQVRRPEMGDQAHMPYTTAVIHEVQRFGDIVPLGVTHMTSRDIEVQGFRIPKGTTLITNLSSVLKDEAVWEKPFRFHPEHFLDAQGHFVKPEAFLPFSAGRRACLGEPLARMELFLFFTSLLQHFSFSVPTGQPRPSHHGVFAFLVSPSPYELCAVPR
pIC50: −log10 of the molar value.
Let's look at some molecules and their measured pIC50.

Solved cases below.
N#CC(C(=O)NCC(=O)NC1COC1)c1nc2ccc(-c3ccc(F)nc3)cc2s1 (racemic)    < 4.74
N#CC(C(=O)NCC(=O)NC1CC1)c1nc2ccc(-c3ccccc3)cc2s1 (racemic)    < 4.74

Please examine the following record next.
Ask: # pIC50 lookup, item CN(C)C(=O)c1cccc(-c2ccc3nc(C(C#N)C(=O)NCC(=O)NC4CC4)sc3c2)c1 (racemic)
Result: < 4.74

---

Recorded pIC50 values (Cytochrome P450 2C19 (Homo sapiens, UniProt P33261)) are given below.
pIC50: −log10 of the molar value.

Solved cases below.
N#CC(C(=O)NCC(=O)NC1COC1)c1nc2ccc(-c3ccc(F)nc3)cc2s1 (racemic)    < 4.74
CN(C)C(=O)c1cccc(-c2ccc3nc(C(C#N)C(=O)NCC(=O)NC4CC4)sc3c2)c1 (racemic)    < 4.74

Ask: # pIC50 lookup, item N#CC(C(=O)NCC(=O)NC1CC1)c1nc2ccc(-c3ccccc3)cc2s1 (racemic)
Result: < 4.74

---

Experiment: Plasma concentration in BALB/c mouse at 50 mg/kg, ip measured at 24 hrs post dose
Format: ADME, organism-based
readout_kind: concentration at 24 h (nM)
The answer is to be given in nM; state only the numeric part.

Ask: # concentration at 24 h lookup, item N#CC(C(=O)NCC(=O)NC1CC1)c1nc2ccc(-c3ccccc3)cc2s1 (racemic)
Result: 1660

---

Let's look at some molecules and their measured Papp.
Test: Permeability of compound at pH 7.4 by PAMPA
Assay type: ADME
Conditions: read-out: permeability
The answer is to be given in ×10⁻⁶ cm/s; state only the numeric part.

Solved cases below.
CN(C)C(=O)c1cccc(-c2ccc3nc(C(C#N)C(=O)NCC(=O)NC4CC4)sc3c2)c1 (racemic)    0.3
N#CC(C(=O)NCC(=O)NC1CC1)c1nc2ccc(-c3ccccc3)cc2s1 (racemic)    84.5
N#CC(C(=O)NCC(=O)NC1CC1)c1nc2ccc(-c3ccc(C(=O)N4CCOCC4)cc3)cc2s1 (racemic)    0.4
CN1CCN(C(=O)c2ccc(-c3ccc4nc(C(C#N)C(=O)NCC(=O)NC5CC5)sc4c3)cc2)CC1 (racemic)    0.3

Please examine the following record next.
Ask: # Papp lookup, item N#CC(C(=O)NCC(=O)NC1COC1)c1nc2ccc(-c3ccc(F)nc3)cc2s1 (racemic)
Result: 0.4

---

Test: Plasma concentration in BALB/c mouse at 10 mg/kg, po measured at 24 hrs post dose
Assay type: ADME, organism-based
readout_kind: concentration at 24 h (nM)
The answer is to be given in nM; state only the numeric part.

Ask: # concentration at 24 h lookup, item N#CC(C(=O)NCC(=O)NC1CC1)c1nc2ccc(-c3ccccc3)cc2s1 (racemic)
Result: 140

---

Biological target: Endothelial lipase (Homo sapiens, UniProt Q9Y5X9)
Sequence (Q9Y5X9 whole entry): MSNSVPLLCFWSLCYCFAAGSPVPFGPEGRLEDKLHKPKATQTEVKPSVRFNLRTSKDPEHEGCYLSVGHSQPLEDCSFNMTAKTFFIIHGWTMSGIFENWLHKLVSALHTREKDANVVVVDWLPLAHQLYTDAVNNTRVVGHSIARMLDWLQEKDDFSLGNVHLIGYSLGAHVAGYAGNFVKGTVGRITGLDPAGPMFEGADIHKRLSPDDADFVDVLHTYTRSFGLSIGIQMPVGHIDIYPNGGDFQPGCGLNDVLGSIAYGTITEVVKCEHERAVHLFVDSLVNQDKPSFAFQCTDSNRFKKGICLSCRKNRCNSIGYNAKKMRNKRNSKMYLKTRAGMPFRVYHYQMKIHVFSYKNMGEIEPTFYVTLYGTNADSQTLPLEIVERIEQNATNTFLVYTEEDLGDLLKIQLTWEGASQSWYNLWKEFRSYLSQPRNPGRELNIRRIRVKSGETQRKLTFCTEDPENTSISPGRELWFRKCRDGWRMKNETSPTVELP
Assay: Inhibition of endothelial lipase (unknown origin)
readout_kind: pIC50
Please express pIC50 as -log10 of the molar concentration.

Solved cases below.
N#CC(C(=O)NCC(=O)NC1CC1)c1nc2ccc(-c3ccc(NC(=O)OCc4ccccc4)cc3)cc2s1 (racemic)    9.00
CN1CCN(C(=O)c2ccc(-c3ccc4nc(C(C#N)C(=O)NCC(=O)NC5CCC5)sc4c3)cc2)CC1 (racemic)    5.51
N#CC(C(=O)NCC(=O)N1CCCC1)c1nc2ccc(-c3ccccc3)cc2s1 (racemic)    5.89
N#CC(C(=O)NCC(=O)NC1CC1)c1nc2ccc(-c3ccc(F)nc3)cc2s1 (racemic)    6.77

Please examine the following record next.
Ask: # pIC50 lookup, item N#CC(C(=O)NCC(=O)NC1CC1)c1nc2ccc(-c3ccc4c(c3)CNC4=O)cc2s1 (racemic)
Result: 8.28

---

Assay: Half life in BALB/c mouse at 10 mg/kg, po
Assay type: ADME, organism-based
Details: in vivo
readout_kind: half-life (min)
The answer is to be given in min; state only the numeric part.

Ask: # half-life lookup, item N#CC(C(=O)NCC(=O)NC1CC1)c1nc2ccc(-c3ccccc3)cc2s1 (racemic)
Result: 510

---

Assay: Metabolic stability in human liver microsomes assessed as parent compound remaining at 0.5 uM preincubated with compound followed by NADPH addition and measured after 10 mins
Format: ADME, Microsome
Conditions: read-out: Stability
Entries whose remaining at 10 min, 0.5 µM is below 90% take label 1; entries at or above 90% take label 0.

Worked cases, answers included:
CN(C)C(=O)c1cccc(-c2ccc3nc(C(C#N)C(=O)NCC(=O)NC4CC4)sc3c2)c1 (racemic)    label 1
CN1CCN(C(=O)c2ccc(-c3ccc4nc(C(C#N)C(=O)NCC(=O)NC5CC5)sc4c3)cc2)CC1 (racemic)    label 1
N#CC(C(=O)NCC(=O)NC1COC1)c1nc2ccc(-c3ccc(F)nc3)cc2s1 (racemic)    label 1

Okay, now this molecule:
Ask: Criterion: remaining at 10 min, 0.5 µM strictly below 90%. Is it met by N#CC(C(=O)NCC(=O)NC1CC1)c1nc2ccc(-c3ccc(C(=O)N4CCOCC4)cc3)cc2s1 (racemic) ?
Result: label 0

---

Experiment: Permeability of compound at pH 5.0 by PAMPA
Assay type: ADME
Settings: read-out: permeability
readout_kind: Papp
Report field: quantity (unit follows the number).

CN1CCN(C(=O)c2ccc(-c3ccc4nc(C(C#N)C(=O)NCC(=O)NC5CC5)sc4c3)cc2)CC1 (racemic)    0.2 ×10⁻⁶ cm/s
N#CC(C(=O)NCC(=O)NC1CC1)c1nc2ccc(-c3ccc(C(=O)N4CCOCC4)cc3)cc2s1 (racemic)    10.4 ×10⁻⁶ cm/s
N#CC(C(=O)NCC(=O)NC1CC1)c1nc2ccc(-c3ccccc3)cc2s1 (racemic)    162 ×10⁻⁶ cm/s
CN(C)C(=O)c1cccc(-c2ccc3nc(C(C#N)C(=O)NCC(=O)NC4CC4)sc3c2)c1 (racemic)    8.4 ×10⁻⁶ cm/s

Ask: # Papp lookup, item N#CC(C(=O)NCC(=O)NC1COC1)c1nc2ccc(-c3ccc(F)nc3)cc2s1 (racemic)
Result: 6.5 ×10⁻⁶ cm/s

---

Test: AUC (0 to 24 hrs) in BALB/c mouse at 50 mg/kg, ip measured up to 24 hrs
Format: ADME, organism-based
Design: time < 24 hr, dose 50 mg/kg, route intraperitoneal
Conditions: in vivo
readout_kind: AUC(0-t) at 24 h
Report field: quantity (unit follows the number).

Ask: # AUC(0-t) at 24 h lookup, item N#CC(C(=O)NCC(=O)NC1CC1)c1nc2ccc(-c3ccccc3)cc2s1 (racemic)
Result: 330 µM·h

Origin of values: ChEMBL document CHEMBL4396970
